All values here come from patent US20210145976A1.

Give measured hCD71 for each item. Keep answers brief.
- System Tested: T1, recombinant biotinylated CD71 extracellular domain (Sino Biologics) with an N-terminal 6His tag (human, UniProt P02786 89-760, biotinylated (sites not given))
- T1 construct: extracellular domain; also called hCD71; huCD71
- T1 sequence (P02786 other isoform, or with tags, fused parts or gaps): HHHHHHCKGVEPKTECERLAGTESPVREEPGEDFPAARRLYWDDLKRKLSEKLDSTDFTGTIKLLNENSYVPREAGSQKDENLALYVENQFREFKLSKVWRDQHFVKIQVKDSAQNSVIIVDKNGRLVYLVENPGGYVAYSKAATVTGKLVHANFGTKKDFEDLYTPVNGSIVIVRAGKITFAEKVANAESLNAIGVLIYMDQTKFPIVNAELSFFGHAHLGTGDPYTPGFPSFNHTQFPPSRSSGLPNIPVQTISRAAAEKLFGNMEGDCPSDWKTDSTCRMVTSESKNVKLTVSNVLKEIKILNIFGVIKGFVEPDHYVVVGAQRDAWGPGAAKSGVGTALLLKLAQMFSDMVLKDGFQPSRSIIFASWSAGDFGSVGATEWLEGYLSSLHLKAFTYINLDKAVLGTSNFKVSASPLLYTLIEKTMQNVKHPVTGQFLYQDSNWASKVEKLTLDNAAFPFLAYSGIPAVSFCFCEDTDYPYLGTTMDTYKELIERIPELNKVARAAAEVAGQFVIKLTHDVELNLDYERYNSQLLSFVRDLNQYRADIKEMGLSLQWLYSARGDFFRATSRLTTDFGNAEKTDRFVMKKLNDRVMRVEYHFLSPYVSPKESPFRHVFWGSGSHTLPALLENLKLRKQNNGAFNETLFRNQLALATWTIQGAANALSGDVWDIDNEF
- Assay Procedure: screening ELISA
One number for each entry.

Worked cases, answers included:
- Binder: "SEQ ID NO 56 (designed binder, FN3 domain) MLPAPKNLVVSRVTEDSARLSWTAPDAAFDSFVIEYFEALEGGEAIVLTVPGSERSYDLTGLKPGTEYFVGIYGVKGGPLSKPLSAIFTT"
  Reported Measurement: "1.13e+07"
- Binder: "SEQ ID NO 35 (designed binder, FN3 domain) MLPAPKNLVVSRVTEDSARLSWTAPDAAFDSFEIAYFEAIWNGEAIYLTVPGSERSYDLTGLKPGTEYQVEIRGVKGGPTSRPLFAWFTT"
  Reported Measurement: "3.24e+06"
- Binder: "SEQ ID NO 47 (designed binder, FN3 domain) MLPAPKNLVVSRVTEDSARLSWTAPDAAFDSFTIWYAEALGDGEAIVLTVPGSERSYDLTGLKPGTEYFVDIYGVKGGFWSLPLSAIFTT"
  Reported Measurement: 265000
- Binder: "SEQ ID NO 53 (designed binder, FN3 domain) MLPAPKNLVVSRVTEDSARLSWTAPDAAFDSFFISYIEWWDLGEAIVLTVPGSERSYDLTGLKPGTEYHVEIFGVKGGTQSYPLSAIFTT"
  Reported Measurement: "1.01e+06"
- Binder: "SEQ ID NO 59 (designed binder, FN3 domain) MLPAPKNLVVSRVTEDSARLSWTAPDAAFDSFTIWYAEWEDEGEAIVLTVPGSERSYDLTGLKPGTEYRVEIYGVKGGYPSKPLSAIFTT"
  Reported Measurement: "1.95e+06"

# batch: return hCD71 for each of the 2 binders below
1. SEQ ID NO 43 (designed binder, FN3 domain) MLPAPKNLVVSRVTEDSARLSWTAPDAAFDSFYIEYYESYPGGEAIVLTVPGSERSYDLTGLKPGTEYDVYIYGVKGGYWSRPLSAIFTT
2. SEQ ID NO 55 (designed binder, FN3 domain) MLPAPKNLVVSRVTEDSARLSWTAPDAAFDSFIIEYWEFVGYGEAIVLTVPGSERSYDLTGLKPGTEYWVAIYGVKGGDLSKPLSAIFTT

Result ::
1. 1.62e+06
2. 1.11e+07

Lookup result for SEQ ID NO 49 (designed binder, FN3 domain) MLPAPKNLVVSRVTEDSARLSWTAPDAAFDSFGISYLEWWEDGEAIVLTVPGSERSYDLTGLKPGTEYWVSIAGVKGGKRSYPLSAIFTT ; measured hCD71: 1.09e+07
